So I've got a bunch of compounds here, and I need their pest or weed control at 320 g/ha values.
system: Polygonum convolvulus; assay: Post-emergence herbicidal activity against POLCO; type: in vivo; details: Fallopia convolvulus, 504 h, dosage 320 g/ha, rated visually after about 3 weeks

Here's what some known entries look like.
> print(dat)
                                   compound                        observable  recorded.result
1  CC1(C(=O)NC2COCC2C(=O)NC2CC2)CC(c2cc(F)cc(F)c2)=NO1 (centres unmarked)  pest or weed control at 320 g/ha              80%
2  C=C[C@]1(C(=O)N[C@@H]2CO[C@H](C(=O)NOCC)C2)CC(c2cc(F)cc(F)c2)=NO1 (mixture of isomers)  pest or weed control at 320 g/ha              80%
3  CC1(C(=O)N[C@@H]2CO[C@H](C(=O)NC3CC3)C2)CC(c2cc(F)cc(F)c2)=NO1 (relative stereo)  pest or weed control at 320 g/ha              80%
4  C=C[C@]1(C(=O)N[C@@H]2CO[C@H](C(=O)NOC(C)C)C2)CC(c2cc(F)cc(F)c2)=NO1 (mixture of isomers)  pest or weed control at 320 g/ha              80%
5  CNC(=O)[C@@H]1C[C@H](NC(=O)C2(C)CC(c3cc(F)cc(F)c3)=NO2)CO1 (relative stereo)  pest or weed control at 320 g/ha              80%
6  C=C[C@]1(C(=O)N[C@H]2CO[C@@H](C(=O)NNC(=O)OC(C)(C)C)C2)CC(c2cc(F)cc(F)c2)=NO1 (mixture of isomers)  pest or weed control at 320 g/ha              90%

Kindly give each listed record's pest or weed control at 320 g/ha.
1. C=C[C@]1(C(=O)N[C@@H]2CO[C@H](C(=O)N(C)C)C2)CC(c2cc(F)cc(F)c2)=NO1 (mixture of isomers)
2. C=CC1(C(=O)N[C@@H]2CO[C@H](C(=O)N3CCCC3)C2)CC(c2cc(F)cc(F)c2)=NO1 (relative stereo)
3. C=C[C@]1(C(=O)N[C@@H]2CO[C@H](C(=O)NN(C)C)C2)CC(c2cc(F)cc(F)c2)=NO1 (mixture of isomers)
4. CC1(C(=O)N[C@@H]2CO[C@H](C(=O)N3CCCC3)C2)CC(c2cc(F)cc(F)c2)=NO1 (relative stereo)
5. C=C[C@]1(C(=O)N[C@@H]2CO[C@H](C(=O)NOC)C2)CC(c2cc(F)cc(F)c2)=NO1 (mixture of isomers)

## Result
["80%", "80%", "90%", "80%", "80%"]
